Reference for the values: PubChem BioAssay (NCI)

Test system: DMS 114 small cell lung
procedure.text: NCI tumour cell line growth inhibition, 48 h
endpoint.name: TGI

| compound | experimental.target | TGI |
| --- | --- | --- |
| Nc1ccc(-c2cc(C(=O)Nc3nccs3)[nH]c(=S)n2)cc1 | DMS 114 small cell lung | > 100 µM |

Problem: State, in one line, measured TGI of N#C/C(c1nc2ccccc2[nH]1)=c1\s/c(=C(/N)O)c(=N)n1-c1ccccc1
Solution: > 100 µM

----------
Listing: TGI of selected molecules
System: XF 498 CNS
procedure.text: NCI tumour cell line growth inhibition, 48 h

| molecule | TGI |
| --- | --- |
| C[P+](C)(C)C | > 100 µM |
| CCOC(=O)C1C=C2O[C@@H]3OC4(CCCCC4)O[C@@H]3C2C2C(=O)CCC(=O)[C@@]12C(=O)OC (some centres undefined) | > 100 µM |
| S=c1o[nH]c(-c2ccccc2)c1C=Nc1ccccc1 | > 100 µM |
| N#COc1ccc(Oc2ccccc2)cc1 | > 100 µM |
| CCC1C(C#N)=C(O)NC(O)=C1C#N | > 100 µM |
| C1OC1CN1CCN(CC2CO2)CC1 (centres undefined) | > 100 µM |
| Cc1ccc(S(=O)(=O)N/N=C(\c2nc3ccc([N+](=O)[O-])cc3[nH]c2=O)C(O)c2ccc([N+](=O)[O-])cc2)cc1 (centres undefined) | > 100 µM |
| CCO/S(=N/S(=O)(=O)c1ccccc1)c1ccccc1[N+](=O)[O-] (centres undefined) | > 100 µM |

Problem: State, in one line, measured TGI of CC1(C)CCCC2(C)C3C(O)CC2(C)C(O)C31 (centres undefined)
Solution: > 100 µM
